This collection of values is drawn from patent US20070293656A1.

- ASSAY TARGET: T1, human collagen type I (acid soluble, extracted from placenta, Sigma C7774) (human, UniProt P02452 162-1218; P08123 80-1119)
- T1 construct: gelled and dried as a fibril film in the assay; also called dried human collagen; h-Collagen
- T1 sequence (P02452 162-1218 limits assumed, chain 1 of 2): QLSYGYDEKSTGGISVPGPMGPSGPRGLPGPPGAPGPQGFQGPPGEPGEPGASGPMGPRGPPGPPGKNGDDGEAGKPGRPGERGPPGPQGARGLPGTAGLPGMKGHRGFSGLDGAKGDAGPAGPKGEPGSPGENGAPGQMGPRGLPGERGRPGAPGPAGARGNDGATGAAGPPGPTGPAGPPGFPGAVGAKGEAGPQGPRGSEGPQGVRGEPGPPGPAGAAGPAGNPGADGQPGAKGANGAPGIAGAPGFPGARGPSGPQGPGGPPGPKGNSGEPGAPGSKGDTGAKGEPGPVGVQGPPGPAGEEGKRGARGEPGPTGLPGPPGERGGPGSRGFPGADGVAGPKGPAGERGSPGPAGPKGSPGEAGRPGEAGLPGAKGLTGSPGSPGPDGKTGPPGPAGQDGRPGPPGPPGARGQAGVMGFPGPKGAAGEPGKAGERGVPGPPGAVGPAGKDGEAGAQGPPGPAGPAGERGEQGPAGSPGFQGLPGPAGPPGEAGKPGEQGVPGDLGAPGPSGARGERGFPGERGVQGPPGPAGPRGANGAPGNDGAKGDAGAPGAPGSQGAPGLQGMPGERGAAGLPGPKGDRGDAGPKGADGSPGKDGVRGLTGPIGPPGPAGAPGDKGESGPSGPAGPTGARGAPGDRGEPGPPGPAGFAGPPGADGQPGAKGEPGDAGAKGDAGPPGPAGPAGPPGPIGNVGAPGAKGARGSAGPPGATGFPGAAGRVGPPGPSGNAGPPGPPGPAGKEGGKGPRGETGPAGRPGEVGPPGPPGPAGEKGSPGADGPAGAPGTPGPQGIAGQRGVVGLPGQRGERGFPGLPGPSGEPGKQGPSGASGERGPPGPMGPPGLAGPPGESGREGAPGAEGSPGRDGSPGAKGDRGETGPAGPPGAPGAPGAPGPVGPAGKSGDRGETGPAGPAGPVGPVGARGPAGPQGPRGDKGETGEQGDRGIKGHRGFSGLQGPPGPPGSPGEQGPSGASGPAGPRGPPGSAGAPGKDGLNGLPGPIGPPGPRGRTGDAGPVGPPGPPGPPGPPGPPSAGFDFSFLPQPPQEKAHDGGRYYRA
- T1 sequence (P08123 80-1119 limits assumed, chain 2 of 2): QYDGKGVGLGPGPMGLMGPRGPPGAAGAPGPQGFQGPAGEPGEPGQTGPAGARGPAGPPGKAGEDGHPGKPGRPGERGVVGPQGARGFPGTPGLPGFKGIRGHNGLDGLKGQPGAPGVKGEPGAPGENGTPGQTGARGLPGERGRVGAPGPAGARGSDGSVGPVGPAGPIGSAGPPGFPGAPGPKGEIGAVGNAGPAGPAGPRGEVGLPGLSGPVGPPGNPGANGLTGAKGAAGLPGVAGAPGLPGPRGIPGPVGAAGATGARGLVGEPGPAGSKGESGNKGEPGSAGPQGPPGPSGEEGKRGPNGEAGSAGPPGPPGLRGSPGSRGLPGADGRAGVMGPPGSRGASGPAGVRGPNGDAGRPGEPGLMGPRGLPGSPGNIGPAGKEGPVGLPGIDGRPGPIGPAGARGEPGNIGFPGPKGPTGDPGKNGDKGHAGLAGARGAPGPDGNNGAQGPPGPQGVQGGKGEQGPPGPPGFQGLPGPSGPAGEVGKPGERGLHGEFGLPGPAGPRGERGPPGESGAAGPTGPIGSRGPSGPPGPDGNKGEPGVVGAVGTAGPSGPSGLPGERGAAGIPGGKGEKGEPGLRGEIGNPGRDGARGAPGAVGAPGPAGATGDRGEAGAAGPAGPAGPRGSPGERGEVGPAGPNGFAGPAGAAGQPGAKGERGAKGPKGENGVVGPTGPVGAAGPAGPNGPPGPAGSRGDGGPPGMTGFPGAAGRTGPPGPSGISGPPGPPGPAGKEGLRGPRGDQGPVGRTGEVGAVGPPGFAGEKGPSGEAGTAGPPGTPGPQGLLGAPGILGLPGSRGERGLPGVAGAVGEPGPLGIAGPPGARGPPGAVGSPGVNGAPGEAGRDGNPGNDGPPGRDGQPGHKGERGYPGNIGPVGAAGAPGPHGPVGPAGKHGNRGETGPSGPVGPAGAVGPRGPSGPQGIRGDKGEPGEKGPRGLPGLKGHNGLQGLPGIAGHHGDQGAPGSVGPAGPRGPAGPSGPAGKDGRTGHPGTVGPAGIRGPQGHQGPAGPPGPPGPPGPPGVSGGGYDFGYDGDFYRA
- TEST PROTOCOL: dried collagen assay
Bridge positions count the residues as written; N and C are the ends. Ends that are not written are not given here.
MEASUREMENT NAME: % bound (%)

Use the examples below as a reference point.
Supply reported % bound belonging to this binder: YHACYQAGCWIY (disulfide 4-9 (inferred)) [SEQ ID NO: 106]
9

Recall and state the measured % bound for TWQCSGNQKWSCEWF (disulfide 4-12 (inferred)) [SEQ ID NO: 6] .
20

Recall and state the measured % bound for GWNCYEYDSQWICDHL (disulfide 4-13 (inferred)) [SEQ ID NO: 44] .
28

Consider the binder LWTCSMDRNYDWVCGEK (disulfide 4-14 (inferred)) [SEQ ID NO: 82] and give its recorded % bound.
3

Provide % bound value for the following binder: FWTCMRDQVGEWHCGTE (disulfide 4-14 (inferred)) [SEQ ID NO: 88]
1

Return % bound for the following binder: RWTCDLQRGDWQCSTI (disulfide 4-13 (inferred)) [SEQ ID NO: 57]
11

A: KWSCYMVDHQWYCREF (disulfide 4-13 (inferred)) [SEQ ID NO: 61]
B: DWTCSGDEYYWHCNYE (disulfide 4-13 (inferred)) [SEQ ID NO: 16]
So which one has the bigger % bound here, A or B ? Please identify the chosen entry by its label.
B
